What follows is a collection of Ki values obtained with 5-hydroxytryptamine receptor 2A (Homo sapiens, UniProt P28223).
Sequence (P28223 whole entry): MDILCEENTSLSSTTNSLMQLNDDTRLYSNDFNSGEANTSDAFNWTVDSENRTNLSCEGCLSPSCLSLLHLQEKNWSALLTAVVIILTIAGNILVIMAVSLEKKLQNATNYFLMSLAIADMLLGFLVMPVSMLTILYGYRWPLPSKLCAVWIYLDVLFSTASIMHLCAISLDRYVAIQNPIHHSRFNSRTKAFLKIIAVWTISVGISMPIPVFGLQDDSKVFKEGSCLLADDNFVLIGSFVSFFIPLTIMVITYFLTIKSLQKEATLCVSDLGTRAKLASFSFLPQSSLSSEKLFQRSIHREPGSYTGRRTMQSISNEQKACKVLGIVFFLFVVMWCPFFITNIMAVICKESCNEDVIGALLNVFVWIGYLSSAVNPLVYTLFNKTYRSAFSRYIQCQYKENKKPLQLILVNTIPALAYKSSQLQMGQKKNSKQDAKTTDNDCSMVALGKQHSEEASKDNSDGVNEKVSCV
Numbers only, in nM.

# substance_smiles, target_system, measurement_label, measured_result
records = [
    ("c1ccc2c(c1)Cc1ccccc1C21CCCNC1", "5-hydroxytryptamine receptor 2A (Homo sapiens, UniProt P28223)", "Ki", 99),
]

Next item in the queue.
Q) Quick one: Ki for c1ccc2c(c1)CCc1ccccc1C21CCNC1 ?
A) 110

====

- target_system: Sodium-dependent noradrenaline transporter (Homo sapiens, UniProt P23975)
- Sequence (P23975 whole entry): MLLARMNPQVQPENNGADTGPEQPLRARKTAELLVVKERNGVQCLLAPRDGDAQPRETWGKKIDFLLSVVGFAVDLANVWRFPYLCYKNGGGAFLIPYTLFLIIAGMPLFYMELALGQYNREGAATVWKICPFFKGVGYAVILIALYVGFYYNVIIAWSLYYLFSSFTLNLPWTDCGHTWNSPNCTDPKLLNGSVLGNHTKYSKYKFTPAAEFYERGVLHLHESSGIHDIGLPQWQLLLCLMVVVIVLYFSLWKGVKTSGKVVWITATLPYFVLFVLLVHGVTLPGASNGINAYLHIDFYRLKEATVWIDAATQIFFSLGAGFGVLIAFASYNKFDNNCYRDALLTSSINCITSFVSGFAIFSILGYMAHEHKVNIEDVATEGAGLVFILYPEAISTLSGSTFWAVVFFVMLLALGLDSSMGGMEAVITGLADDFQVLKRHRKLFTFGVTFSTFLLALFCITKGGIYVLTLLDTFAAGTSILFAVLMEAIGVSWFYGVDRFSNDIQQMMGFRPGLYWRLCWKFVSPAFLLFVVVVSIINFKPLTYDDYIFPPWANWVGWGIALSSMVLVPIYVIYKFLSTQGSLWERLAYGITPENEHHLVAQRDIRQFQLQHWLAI
measurement_label: Ki (µM)
Give bare numbers, in µM.

Q) Quick one: Ki for c1ccc2c(c1)Cc1ccccc1C21CCNC1 ?
A) 10

====

- target_system: Sodium-dependent serotonin transporter (Homo sapiens)
- Sequence (P31645 whole entry): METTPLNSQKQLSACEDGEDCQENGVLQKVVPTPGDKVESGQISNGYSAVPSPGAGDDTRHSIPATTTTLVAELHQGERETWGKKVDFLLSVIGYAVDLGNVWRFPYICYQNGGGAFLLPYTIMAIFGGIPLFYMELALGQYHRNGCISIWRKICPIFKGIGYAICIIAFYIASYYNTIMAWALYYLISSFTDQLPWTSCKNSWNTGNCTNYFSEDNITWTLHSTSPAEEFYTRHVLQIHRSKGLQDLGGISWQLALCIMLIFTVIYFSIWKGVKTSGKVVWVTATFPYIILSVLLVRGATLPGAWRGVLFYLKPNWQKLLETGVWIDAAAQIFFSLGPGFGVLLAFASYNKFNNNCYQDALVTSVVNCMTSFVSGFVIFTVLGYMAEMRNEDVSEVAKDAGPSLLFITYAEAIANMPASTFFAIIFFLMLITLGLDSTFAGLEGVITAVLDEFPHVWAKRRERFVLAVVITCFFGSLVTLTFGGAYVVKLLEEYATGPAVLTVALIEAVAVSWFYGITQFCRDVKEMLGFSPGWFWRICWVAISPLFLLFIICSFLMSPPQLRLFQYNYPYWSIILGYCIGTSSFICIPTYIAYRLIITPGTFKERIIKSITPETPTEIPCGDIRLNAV
measurement_label: pKi
Give bare numbers, as −log10 of the molar value.

Q) Quick one: pKi for c1ccc2c(c1)Cc1ccccc1C21CCNC1 ?
A) 5.41

Values from ChEMBL document CHEMBL1148436
